Target: T1, ACE from rabbit lung (rabbit, UniProt P12822 34-1310, limits assumed)
T1 sequence (looked up): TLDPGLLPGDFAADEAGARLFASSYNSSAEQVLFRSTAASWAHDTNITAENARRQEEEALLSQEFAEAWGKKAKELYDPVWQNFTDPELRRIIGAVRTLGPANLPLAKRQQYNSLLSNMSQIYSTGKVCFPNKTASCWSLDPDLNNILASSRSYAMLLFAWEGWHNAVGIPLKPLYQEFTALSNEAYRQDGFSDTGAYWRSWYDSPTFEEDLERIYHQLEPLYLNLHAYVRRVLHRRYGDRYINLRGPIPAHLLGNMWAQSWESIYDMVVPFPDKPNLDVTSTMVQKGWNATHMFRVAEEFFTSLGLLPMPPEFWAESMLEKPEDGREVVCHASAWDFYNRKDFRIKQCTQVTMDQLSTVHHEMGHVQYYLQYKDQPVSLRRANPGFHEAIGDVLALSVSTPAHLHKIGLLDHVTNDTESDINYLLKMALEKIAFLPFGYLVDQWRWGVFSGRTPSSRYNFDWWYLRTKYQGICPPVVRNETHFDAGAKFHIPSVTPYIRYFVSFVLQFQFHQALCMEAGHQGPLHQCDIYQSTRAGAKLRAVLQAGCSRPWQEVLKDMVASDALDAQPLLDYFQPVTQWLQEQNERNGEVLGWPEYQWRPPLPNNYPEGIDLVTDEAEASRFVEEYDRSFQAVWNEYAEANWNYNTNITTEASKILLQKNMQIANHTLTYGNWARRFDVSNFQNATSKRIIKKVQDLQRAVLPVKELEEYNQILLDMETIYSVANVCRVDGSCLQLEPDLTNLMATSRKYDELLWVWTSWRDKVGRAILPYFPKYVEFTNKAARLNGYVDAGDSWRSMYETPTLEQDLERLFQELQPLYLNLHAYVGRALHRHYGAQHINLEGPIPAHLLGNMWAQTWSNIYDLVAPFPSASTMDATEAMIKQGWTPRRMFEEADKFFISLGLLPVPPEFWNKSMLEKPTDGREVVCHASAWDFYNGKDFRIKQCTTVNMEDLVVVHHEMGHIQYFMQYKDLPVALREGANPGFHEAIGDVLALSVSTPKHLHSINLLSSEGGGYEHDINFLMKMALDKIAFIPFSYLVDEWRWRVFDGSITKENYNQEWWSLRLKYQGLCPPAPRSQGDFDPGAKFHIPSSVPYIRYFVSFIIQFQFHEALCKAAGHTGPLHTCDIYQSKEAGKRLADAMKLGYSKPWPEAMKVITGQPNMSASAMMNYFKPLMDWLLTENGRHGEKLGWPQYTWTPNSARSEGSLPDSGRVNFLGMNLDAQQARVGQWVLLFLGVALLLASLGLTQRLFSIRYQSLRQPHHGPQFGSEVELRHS
Experiment: cell-based or functional assay
Where no end group is shown, it is not given here. linker type G21 = not defined here; linker type C9 = not defined here
MEASURED METRIC: ACE inhibition IC50

HAEGTFTSDVSSYLEGQAAKEFIAWLVKGRG (lisinopril joined at the C-terminus through linker type G21 (FIG. 2)) [Compound 5607]: 100 nM
HAEGTFTSDVTQQLDEKAAKEFIDWLINGGPSKEIIS-{linker type C9-lisinopril} (reading uncertain) [Compound 5714]: 350 nM
HAEGTFTSDVTQQLDEKAAKEFIDWLINGGPSKEIIS-{linker type G21-lisinopril} (reading uncertain) [Compound 5713]: 700 nM

Here is another binder to look at.
What the record says about HAEGTFTSDVSSYLEGQAAKEFIAWLVKGRG (lisinopril joined at the C-terminus through linker type C9 (FIG. 2)) [Compound 5547] : ACE inhibition IC50 is 180 nM
